Target: proton pump (H+/K+-ATPase) (Sus scrofa)
Construct: Gastric vesicles were prepared from hog stomach via centrifugal separation
Sequence (P19156 whole entry): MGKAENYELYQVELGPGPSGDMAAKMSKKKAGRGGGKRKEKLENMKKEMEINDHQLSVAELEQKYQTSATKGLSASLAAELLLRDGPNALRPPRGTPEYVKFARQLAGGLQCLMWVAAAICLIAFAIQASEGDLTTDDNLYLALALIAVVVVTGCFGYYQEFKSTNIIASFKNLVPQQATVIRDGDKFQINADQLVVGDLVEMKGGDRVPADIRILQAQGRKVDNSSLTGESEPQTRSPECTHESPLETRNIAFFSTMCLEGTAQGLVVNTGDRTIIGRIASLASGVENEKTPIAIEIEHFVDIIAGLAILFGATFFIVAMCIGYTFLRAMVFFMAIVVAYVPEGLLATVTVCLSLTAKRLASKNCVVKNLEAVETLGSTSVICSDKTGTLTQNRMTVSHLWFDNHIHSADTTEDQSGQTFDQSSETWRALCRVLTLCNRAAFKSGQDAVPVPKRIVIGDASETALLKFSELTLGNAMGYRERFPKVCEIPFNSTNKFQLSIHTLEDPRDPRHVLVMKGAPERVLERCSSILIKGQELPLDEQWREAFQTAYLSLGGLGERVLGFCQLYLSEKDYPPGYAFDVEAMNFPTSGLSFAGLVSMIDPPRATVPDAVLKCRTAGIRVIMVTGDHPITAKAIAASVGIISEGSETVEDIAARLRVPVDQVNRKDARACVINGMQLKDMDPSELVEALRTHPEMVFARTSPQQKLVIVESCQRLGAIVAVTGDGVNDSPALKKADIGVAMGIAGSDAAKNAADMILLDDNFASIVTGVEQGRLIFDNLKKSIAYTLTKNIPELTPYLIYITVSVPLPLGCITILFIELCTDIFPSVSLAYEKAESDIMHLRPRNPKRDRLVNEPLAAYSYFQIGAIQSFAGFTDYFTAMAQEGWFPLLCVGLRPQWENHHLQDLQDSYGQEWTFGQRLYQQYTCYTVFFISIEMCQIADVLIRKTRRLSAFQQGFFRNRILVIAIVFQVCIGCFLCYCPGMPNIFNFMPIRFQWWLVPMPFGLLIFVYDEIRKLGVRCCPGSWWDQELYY
Sequence (P18434 whole entry partner): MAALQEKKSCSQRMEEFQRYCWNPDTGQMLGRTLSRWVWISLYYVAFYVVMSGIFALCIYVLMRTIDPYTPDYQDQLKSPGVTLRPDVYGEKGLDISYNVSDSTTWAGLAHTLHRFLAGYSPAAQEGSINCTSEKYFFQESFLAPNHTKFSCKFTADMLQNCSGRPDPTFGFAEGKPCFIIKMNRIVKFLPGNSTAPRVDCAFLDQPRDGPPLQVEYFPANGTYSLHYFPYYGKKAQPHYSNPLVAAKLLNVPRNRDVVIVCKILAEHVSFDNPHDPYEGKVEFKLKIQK
Assay: Measurement of inhibitory effects on proton pump (H+/K+-ATPase) activities
Settings: hog gastric vesicles, K+-specific H+/K+-ATPase activity, Tris-HCl buffer pH 7.4, 37° C. for 40 minutes, malachite green Pi readout
Counter-ions that a name gives are not always drawn.
parameter: IC50 (µM)

Worked cases, answers included:
CNCc1cn(S(=O)(=O)c2cccc(F)c2)c2cc(Nc3ccc(C)nc3Cl)ncc12 [Example 358, hydrochloride]	1.27
CNCc1cn(S(=O)(=O)c2cncc(F)c2)c2cc(Nc3ccc(F)cc3Cl)ccc12 [Example 213, hydrochloride]	0.16
CNCc1cn(S(=O)(=O)c2cccnc2)c2cc(Nc3ccc(F)cc3C)ccc12 [Example 23, hydrochloride]	0.22
CNCc1cn(S(=O)(=O)c2cccc(OC(F)F)c2)c2cc(-c3cccnc3C(F)(F)F)ccc12 [Example 261, hydrochloride]	9.24
CNCc1cn(S(=O)(=O)c2cccc(OC(F)F)c2)c2cc(Nc3ccc(OC(F)(F)F)cc3C)ccc12 [Example 179, hydrochloride]	0.33

P: CNCc1cn(S(=O)(=O)c2cccc(Cl)c2)c2cc(Nc3ccc(C)cc3OC(F)(F)F)ccc12 [Example 148, hydrochloride]
Q: CNCc1cn(S(=O)(=O)c2cccnc2)c2cc(Nc3c(F)cc(F)cc3Br)ccc12 [Example 91, hydrochloride]
Quick check, higher IC50 between P and Q ? Refer to your chosen item by its label in the answer.
Q
